target: Vasopressin receptor (Rattus norvegicus, UniProt P48974+P30560+Q00788); experiment: Antivasopressor potency in terms of negative logarithm of the effective doses divided by the estimated volume of distribution; format: functional
Numbered stars: 1 amine (or outer) side, 2 acyl side, 3 side chain; on linkers, the order of the positions; unused ones are H or OH. Bridge positions count the residues as written; N and C are the ends. Square brackets hold non-standard residues; d marks the D form. Peptide text beside a SMILES is read from it. X1 = O=C(CC1(S[*:2])CCCCC1)[*:1]
Quick list: pA2 per entry.

molecule	pA2
CCOc1ccc(C[C@H]2NC(=O)CC3(CCCCC3)SSC[C@@H](C(=O)N3CCC[C@H]3C(=O)N[C@@H](CCCN=C(N)N)C(=O)NCC(=O)NCCN)NC(=O)[C@H](CC(N)=O)NC(=O)[C@H](C(C)C)NC(=O)[C@H](Cc3ccccc3)NC2=O)cc1	8.33
CC[C@H](C)[C@@H]1NC(=O)[C@H](Cc2ccccc2)NC(=O)[C@@H](Cc2ccccc2)NC(=O)CC2(CCCCC2)SSC[C@@H](C(=O)N2CCC[C@H]2C(=O)N[C@@H](CCCN=C(N)N)C(=O)NCC(N)=O)NC(=O)[C@H](CC(N)=O)NC1=O ([dF]FINCPRG-NH2; linker N-5 via X1)	7.86
CCOc1ccc(C[C@H]2NC(=O)CC3(CCCCC3)SSC[C@@H](C(=O)NCCNC(=O)[C@@H](N)CCCN)NC(=O)[C@H](CC(N)=O)NC(=O)[C@H](C(C)C)NC(=O)[C@H](Cc3ccccc3)NC2=O)cc1	7.8
CCOc1ccc(C[C@H]2NC(=O)CC3(CCCCC3)SSC[C@@H](C(=O)N[C@@H](CCCN=C(N)N)C(=O)NCC(=O)NCCNC(=O)[C@@H](N)CCCN=C(N)N)NC(=O)[C@H](CC(N)=O)NC(=O)[C@H](C(C)C)NC(=O)[C@H](Cc3ccccc3)NC2=O)cc1	7.96

----------
target: Vasopressin receptor (Rattus norvegicus, UniProt P48974+P30560+Q00788); assay: Antivasopressor potency in terms of negative logarithm of the effective doses divided by the estimated volume of distribution; type: functional
Numbered stars: 1 amine (or outer) side, 2 acyl side, 3 side chain; on linkers, the order of the positions; unused ones are H or OH. Bridge positions count the residues as written; N and C are the ends. Square brackets hold non-standard residues; d marks the D form. Peptide text beside a SMILES is read from it. X1 = O=C(CC1(S[*:2])CCCCC1)[*:1]

compound	pA2
CCOc1ccc(C[C@H]2NC(=O)CC3(CCCCC3)SSC[C@@H](C(=O)NCCN)NC(=O)[C@H](CC(N)=O)NC(=O)[C@H](C(C)C)NC(=O)[C@H](Cc3ccccc3)NC2=O)cc1	8.15
CCOc1ccc(C[C@H]2NC(=O)CC3(CCCCC3)SSC[C@@H](C(=O)N3CCC[C@H]3C(=O)N[C@@H](CCCN=C(N)N)C(=O)NCC(N)=O)NC(=O)[C@H](CC(N)=O)NC(=O)[C@H](C(C)C)NC(=O)[C@H](Cc3ccccc3)NC2=O)cc1 ([dY](Et)FVNCPRG-NH2; linker N-5 via X1)	8.22

----------
target: Vasopressin receptor (Rattus norvegicus, UniProt P48974+P30560+Q00788); assay: Antivasopressor potency in terms of negative logarithm of the effective doses divided by the estimated volume of distribution; type: functional
Quick list: pA2 per entry.

line_notation	pA2
CC(C)C[C@H]1NC(=O)CC2(CCCCC2)SSC[C@@H](C(=O)NCCNC(=O)[C@@H](N)CCCN=C(N)N)NC(=O)[C@H](CC(N)=O)NC(=O)[C@H](C(C)C)NC(=O)[C@H](Cc2ccccc2)NC1=O	6.08
CCOc1ccc(C[C@H]2NC(=O)CC3(CCCCC3)SSC[C@@H](C(=O)N3CCC[C@H]3C(=O)N[C@@H](CCCN=C(N)N)C(=O)NCCNC(=O)[C@@H](N)CCCN=C(N)N)NC(=O)[C@H](CC(N)=O)NC(=O)[C@H]([C@@H](C)CC)NC(=O)[C@H](Cc3ccccc3)NC2=O)cc1	8.27
CCOc1ccc(C[C@H]2NC(=O)CC3(CCCCC3)SSC[C@@H](C(=O)NCCNC(=O)[C@H](N)CCCN)NC(=O)[C@H](CC(N)=O)NC(=O)[C@H](C(C)C)NC(=O)[C@H](Cc3ccccc3)NC2=O)cc1	8.06
CCOc1ccc(C[C@H]2NC(=O)CC3(CCCCC3)SSC[C@@H](C(=O)N3CCC[C@H]3C(=O)NCCN)NC(=O)[C@H](CC(N)=O)NC(=O)[C@H](C(C)C)NC(=O)[C@H](Cc3ccccc3)NC2=O)cc1	7.95
CC[C@@H](C)[C@H]1NC(=O)CC2(CCCCC2)SSC[C@@H](C(=O)NCCNC(=O)[C@@H](N)CCCN=C(N)N)NC(=O)[C@H](CC(N)=O)NC(=O)[C@H](C(C)C)NC(=O)[C@H](Cc2ccccc2)NC1=O	6.16
CCOc1ccc(C[C@H]2NC(=O)CC3(CCCCC3)SSC[C@@H](C(=O)NCCNC(=O)[C@H](N)CCCN=C(N)N)NC(=O)[C@H](CC(N)=O)NC(=O)[C@H](C(C)C)NC(=O)[C@H](Cc3ccccc3)NC2=O)cc1	8.15
CCOc1ccc(C[C@H]2NC(=O)CC3(CCCCC3)SSC[C@@H](C(=O)N3CCC[C@H]3C(=O)NCCNC(=O)[C@H](N)CCCN)NC(=O)[C@H](CC(N)=O)NC(=O)[C@H](C(C)C)NC(=O)[C@H](Cc3ccccc3)NC2=O)cc1	7.86
CCOc1ccc(C[C@H]2NC(=O)CC3(CCCCC3)SSC[C@@H](C(=O)N3CCC[C@H]3C(=O)N[C@@H](CCCN=C(N)N)C(=O)NCC(N)=O)NC(=O)[C@H](CC(N)=O)NC(=O)[C@H]([C@@H](C)CC)NC(=O)[C@H](Cc3ccccc3)NC2=O)cc1	7.78
CCOc1ccc(C[C@H]2NC(=O)CC3(CCCCC3)SSC[C@@H](C(=O)N3CCC[C@H]3C(=O)N[C@@H](CCCN=C(N)N)C(=O)NCCN)NC(=O)[C@H](CC(N)=O)NC(=O)[C@H]([C@@H](C)CC)NC(=O)[C@H](Cc3ccccc3)NC2=O)cc1	8.33
CCOc1ccc(C[C@H]2NC(=O)CC3(CCCCC3)SSC[C@@H](C(=O)N[C@@H](CCCN=C(N)N)C(=O)NCC(N)=O)NC(=O)[C@H](CC(N)=O)NC(=O)[C@H](C(C)C)NC(=O)[C@H](Cc3ccccc3)NC2=O)cc1	8.09
CC[C@H](C)[C@@H]1NC(=O)[C@H](Cc2ccccc2)NC(=O)[C@@H](Cc2ccccc2)NC(=O)CC2(CCCCC2)SSC[C@@H](C(=O)N2CCC[C@H]2C(=O)N[C@@H](CCCN=C(N)N)C(=O)NCCN)NC(=O)[C@H](CC(N)=O)NC1=O	7.89
CCOc1ccc(C[C@H]2NC(=O)CC3(CCCCC3)SSC[C@@H](C(=O)NCCNC(=O)[C@H](CCCN=C(N)N)NC(=O)[C@@H](N)CCCN=C(N)N)NC(=O)[C@H](CC(N)=O)NC(=O)[C@H](C(C)C)NC(=O)[C@H](Cc3ccccc3)NC2=O)cc1	7.93
CCOc1ccc(C[C@H]2NC(=O)CC3(CCCCC3)SSC[C@@H](C(=O)N3CCC[C@H]3C(=O)N[C@@H](CCCN=C(N)N)C(=O)NCCNC(=O)[C@@H](N)CCCN=C(N)N)NC(=O)[C@H](CC(N)=O)NC(=O)[C@H](C(C)C)NC(=O)[C@H](Cc3ccccc3)NC2=O)cc1	8.15
CCOc1ccc(C[C@@H]2NC(=O)CC3(CCCCC3)SSC[C@@H](C(=O)NCCNC(=O)[C@@H](N)CCCN=C(N)N)NC(=O)[C@H](CC(N)=O)NC(=O)[C@H](C(C)C)NC(=O)[C@H](Cc3ccccc3)NC2=O)cc1	7.97
CCOc1ccc(C[C@H]2NC(=O)CC3(CCCCC3)SSC[C@@H](C(=O)NCCNC(=O)CN)NC(=O)[C@H](CC(N)=O)NC(=O)[C@H](C(C)C)NC(=O)[C@H](Cc3ccccc3)NC2=O)cc1	7.61
CCOc1ccc(C[C@H]2NC(=O)CC3(CCCCC3)SSC[C@@H](C(=O)NCCNC(=O)[C@H](N)CCCCN)NC(=O)[C@H](CC(N)=O)NC(=O)[C@H](C(C)C)NC(=O)[C@H](Cc3ccccc3)NC2=O)cc1	7.92
CCOc1ccc(C[C@H]2NC(=O)CC3(CCCCC3)SSC[C@@H](C(=O)N3CCC[C@H]3C(=O)N[C@@H](CCCN=C(N)N)C(=O)NCCN)NC(=O)[C@H](CC(N)=O)NC(=O)[C@H](C(C)C)NC(=O)[C@H](Cc3ccccc3)NC2=O)cc1	8

----------
Quick list: pA2 per entry.
biological target: Vasopressin receptor (Rattus norvegicus, UniProt P48974+P30560+Q00788); assay: Antiantidiuretic potency in terms of negative logarithm of the effective doses divided by the estimated volume of distribution; type: functional, Urine

line_notation	pA2
CC(C)[C@@H]1NC(=O)[C@H](Cc2ccccc2)NC(=O)[C@@H](Cc2ccccc2)NC(=O)CC2(CCCCC2)SSC[C@@H](C(=O)NCCNC(=O)[C@@H](N)CCCN=C(N)N)NC(=O)[C@H](CC(N)=O)NC1=O	6.91
CC[C@H](C)[C@@H]1NC(=O)[C@H](Cc2ccccc2)NC(=O)[C@@H](Cc2ccccc2)NC(=O)CC2(CCCCC2)SSC[C@@H](C(=O)N2CCC[C@H]2C(=O)N[C@@H](CCCN=C(N)N)C(=O)NCCN)NC(=O)[C@H](CC(N)=O)NC1=O	8.11
CCOc1ccc(C[C@@H]2NC(=O)CC3(CCCCC3)SSC[C@@H](C(=O)NCCNC(=O)[C@@H](N)CCCN=C(N)N)NC(=O)[C@H](CC(N)=O)NC(=O)[C@H](C(C)C)NC(=O)[C@H](Cc3ccccc3)NC2=O)cc1	6.39
CCOc1ccc(C[C@H]2NC(=O)CC3(CCCCC3)SSC[C@@H](C(=O)N3CCC[C@H]3C(=O)NCCNC(=O)[C@H](N)CCCN=C(N)N)NC(=O)[C@H](CC(N)=O)NC(=O)[C@H](C(C)C)NC(=O)[C@H](Cc3ccccc3)NC2=O)cc1	7.92
